Biological target: UniProtKB P04062
Sequence (P04062 40-536): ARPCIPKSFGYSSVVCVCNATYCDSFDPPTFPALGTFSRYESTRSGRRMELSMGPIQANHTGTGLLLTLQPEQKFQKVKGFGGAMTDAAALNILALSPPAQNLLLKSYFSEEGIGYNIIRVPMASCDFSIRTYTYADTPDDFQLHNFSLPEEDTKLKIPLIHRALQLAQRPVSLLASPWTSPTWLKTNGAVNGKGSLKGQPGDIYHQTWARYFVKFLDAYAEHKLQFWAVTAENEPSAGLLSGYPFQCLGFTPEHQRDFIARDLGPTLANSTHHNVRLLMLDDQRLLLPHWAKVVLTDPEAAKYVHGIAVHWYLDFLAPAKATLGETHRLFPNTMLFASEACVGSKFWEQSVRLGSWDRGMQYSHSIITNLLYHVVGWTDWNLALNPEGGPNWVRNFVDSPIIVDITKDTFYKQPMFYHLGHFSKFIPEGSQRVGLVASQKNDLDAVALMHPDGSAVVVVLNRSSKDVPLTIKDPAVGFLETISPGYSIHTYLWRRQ
Test: Glucocerebrosidase (Gcase) activation assay, 4-methylumbelliferyl-beta-D-glucopyranoside substrate, with saposin C
Format: biochemical
Details: test compound at 0.1 μM; read-out: Percent Gcase Activation, 0.1 μM Test Compound
Listing of recorded activation at 0.1 µM by entry.

{"columns": ["compound", "subject_of_test", "activation at 0.1 µM"],
 "data": [
  ["Cc1cc(-c2cccn3cnnc23)nc2c(C(=O)NC(C3CC3)C(F)(F)F)ncn12 (centres unmarked)", "UniProtKB P04062", "< 10%"],
  ["COc1cccc(-c2cc(C)n3cnc(C(=O)NC(C4CC4)C(F)(F)F)c3n2)c1C#N (centres unmarked)", "UniProtKB P04062", "> 20%"],
  ["Cc1cc(-c2cccc3ncnn23)nc2c(C(=O)NC(C3CC3)C(F)(F)F)ncn12 (centres unmarked)", "UniProtKB P04062", "< 10%"],
  ["Cc1cc(-c2ccc3scnc3c2)nc2c(C(=O)NC(C3CC3)C(F)(F)F)ncn12 (centres unmarked)", "UniProtKB P04062", "> 20%"],
  ["CCCCO[C@H]1C[C@H]2CC[C@@H](C1)[C@H]2NC(=O)c1ncn2c(C)cc(COC)nc12", "UniProtKB P04062", "> 20%"],
  ["CCc1cc(N2CCN(C(C)C)C2=O)nc2c(C(=O)NC(C3CC3)C(F)(F)F)ncn12 (centres unmarked)", "UniProtKB P04062", "10 to 20%"]
]}

QUERY: Give the measured activation at 0.1 µM for COc1cccc(-c2cc(C)n3cnc(C(=O)N[C@@H](C)C4CC4)c3n2)c1C#N
RESULT: > 20%

QUERY: Give the measured activation at 0.1 µM for Cc1cc(Oc2cccnc2)nc2c(C(=O)N[C@@H](C)C3CC3)ncn12
RESULT: < 10%
